- Test system: Escherichia coli TOP10;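 further: peptides expressed intracellularly from a pBAD plasmid library in pooled LB shake-flask culture, induced with 0.3% L-arabinose, DNA abundance read by NGS, three biological replicates, DESeq2 with apeglm shrinkage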
- assay notes: shrunken log2 fold change of peptide-encoding DNA abundance (4.5 h post-induction vs induction); higher = less antimicrobial activity (less host growth inhibition)
- measurement context: time post-induction: 4.5 h; library: site-saturation at positions 5, 18, 19, 20
Classification field: TRUE = shrunken log2 fold change at or over 0.1; FALSE = shrunken log2 fold change under 0.1.

# construct sequence, answer label
rows = [
    ("RRIRERPPRLPRPRPRPLDAPRP", "FALSE"),
    ("RRIRCRPPRLPRPRPRPWTEPRP", "FALSE"),
    ("RRIRQRPPRLPRPRPRPGPAPRP", "TRUE"),
    ("RRIRMRPPRLPRPRPRPMFQPRP", "FALSE"),
    ("RRIRGRPPRLPRPRPRPRDCPRP", "TRUE"),
    ("RRIRCRPPRLPRPRPRPLDFPRP", "FALSE"),
    ("RRIRWRPPRLPRPRPRPDDEPRP", "TRUE"),
    ("RRIRSRPPRLPRPRPRPYVHPRP", "FALSE"),
    ("RRIRFRPPRLPRPRPRPHEEPRP", "FALSE"),
    ("RRIRSRPPRLPRPRPRPTHGPRP", "TRUE"),
    ("RRIRIRPPRLPRPRPRPAWHPRP", "FALSE"),
    ("RRIRLRPPRLPRPRPRPRVTPRP", "FALSE"),
    ("RRIRSRPPRLPRPRPRPGGDPRP", "TRUE"),
    ("RRIRDRPPRLPRPRPRPTACPRP", "TRUE"),
    ("RRIRCRPPRLPRPRPRPRECPRP", "FALSE"),
    ("RRIRFRPPRLPRPRPRPMYWPRP", "TRUE"),
    ("RRIRPRPPRLPRPRPRPKLDPRP", "FALSE"),
    ("RRIRVRPPRLPRPRPRPWCWPRP", "FALSE"),
    ("RRIRARPPRLPRPRPRPLPHPRP", "TRUE"),
    ("RRIRNRPPRLPRPRPRPYMTPRP", "FALSE"),
    ("RRIRRRPPRLPRPRPRPKICPRP", "FALSE"),
    ("RRIRCRPPRLPRPRPRPCNCPRP", "FALSE"),
    ("RRIRERPPRLPRPRPRPMHPPRP", "TRUE"),
    ("RRIRGRPPRLPRPRPRPISEPRP", "FALSE"),
]
